- testName: Solubility of the compound in aqueous buffer at pH 7
- Type: physicochemical
For each record, write down the corresponding solubility.
Answers are plain numbers, in µg/mL.

Here are 2 compounds together with their reported answers.
molSmiles: O=C(O)Cn1c2c(c3cc(F)ccc31)CN(C(=O)Cc1c[nH]c3ccccc13)CC2
solubility [µg/mL]: 800

molSmiles: O=C(O)Cn1c2c(c3cc(F)ccc31)CN(C(=O)Cc1cccc3ccccc13)CC2
solubility [µg/mL]: 560

Prompt line: Given the compound `O=C(O)Cn1c2c(c3ccccc31)CN(C(=O)c1cccc(Cl)c1)CC2` , what is its reported solubility?
Response line: 815

###

- testedOn: Chemoattractant receptor-homologous molecule expressed on Th2 cells (Cavia porcellus) (UniProt Q56D28)
- Sequence (Q56D28 as listed by the source): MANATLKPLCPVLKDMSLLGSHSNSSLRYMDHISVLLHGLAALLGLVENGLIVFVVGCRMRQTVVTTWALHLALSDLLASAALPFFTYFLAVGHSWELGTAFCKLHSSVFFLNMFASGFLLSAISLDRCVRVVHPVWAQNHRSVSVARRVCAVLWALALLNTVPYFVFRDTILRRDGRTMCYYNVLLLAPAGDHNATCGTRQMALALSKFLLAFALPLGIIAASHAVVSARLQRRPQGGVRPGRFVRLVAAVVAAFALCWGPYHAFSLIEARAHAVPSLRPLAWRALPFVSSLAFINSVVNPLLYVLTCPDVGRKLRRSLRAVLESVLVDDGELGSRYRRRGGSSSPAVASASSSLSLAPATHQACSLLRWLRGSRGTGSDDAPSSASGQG
- testName: Antagonist activity at guinea pig CRTH2 receptor assessed as inhibition of calcium flux by cell-based FLIPR assay
- Format: functional
The source made the active and inactive calls. No cut-off for these calls is given here.
parameter: inhibition

molSmiles: O=C(O)Cn1c2c(c3cc(C(F)(F)F)ccc31)CN(C(=O)c1cccc3ccccc13)CC2
inhibition: Active
--
molSmiles: O=C(O)Cn1c2c(c3cc(F)ccc31)CN(C(=O)Cc1cccc3ccccc13)CC2
inhibition: Active
--
molSmiles: COc1ccc2c(c1)c1c(n2CC(=O)O)CCN(C(=O)c2ccccc2)C1
inhibition: Active
--
molSmiles: O=C(O)Cn1c2c(c3cc(F)cc(Cl)c31)CN(C(=O)c1cccc3ccccc13)CC2
inhibition: Active
--
molSmiles: O=C(O)Cn1c2c(c3cc(F)ccc31)CN(C(=O)Cc1c[nH]c3ccccc13)CC2
inhibition: Active
--
molSmiles: Cc1cccc2c3c(n(CC(=O)O)c12)CCN(C(=O)c1ccccc1)C3
inhibition: Active
--
molSmiles: O=C(O)Cn1c2c(c3cc(C(F)(F)F)ccc31)CN(C(=O)c1ccccc1)CC2
inhibition: Active
--
molSmiles: O=C(O)Cn1c2c(c3cc(F)ccc31)CN(C(=O)c1cccs1)CC2
inhibition: Active

State recorded inhibition for all listed compounds.
1. O=C(O)Cn1c2c(c3cc(F)cc(Cl)c31)CN(C(=O)c1cccc(Cl)c1)CC2
2. Cc1ccc2c3c(n(CC(=O)O)c2c1)CCN(C(=O)c1ccccc1)C3

Response line:
Active
Active

###

- testedOn: Prostaglandin D2 receptor 2 (Homo sapiens, UniProt Q9Y5Y4)
- Sequence (Q9Y5Y4 whole entry): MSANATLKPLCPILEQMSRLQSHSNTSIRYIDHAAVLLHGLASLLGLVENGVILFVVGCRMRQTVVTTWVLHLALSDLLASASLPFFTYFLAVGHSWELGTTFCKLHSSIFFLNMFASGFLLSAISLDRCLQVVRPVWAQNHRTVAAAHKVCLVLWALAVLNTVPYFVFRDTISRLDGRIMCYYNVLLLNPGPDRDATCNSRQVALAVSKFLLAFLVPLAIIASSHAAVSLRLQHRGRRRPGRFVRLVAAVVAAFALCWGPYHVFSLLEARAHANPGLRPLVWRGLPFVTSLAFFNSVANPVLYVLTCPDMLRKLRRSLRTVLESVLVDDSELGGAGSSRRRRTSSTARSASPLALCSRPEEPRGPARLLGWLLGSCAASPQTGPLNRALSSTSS
- testName: Displacement of [3H]PGD2 from recombinant human CRTH2 receptor expressed in HEK293 cell membranes after 90 mins by scintillation counting analysis
parameter: IC50 (µM)
Answers are plain numbers, in µM.

State recorded IC50 for all listed compounds.
1. O=C(O)Cn1c2c(c3cc(C(F)(F)F)ccc31)CN(C(=O)c1cccc3ccccc13)CC2
2. O=C(O)Cn1c2c(c3cc(F)ccc31)CN(C(=O)CCc1cccc3ccccc13)CC2
3. O=C(O)Cn1c2c(c3ccccc31)CN(C(=O)c1cccc(Cl)c1)CC2

Response line:
1. 0.011
2. 0.01
3. 0.01

###

- Organism: Homo sapiens
- testName: Selectivity factor, ratio of IC50 for recombinant human prostanoid DP1 receptor to IC50 for recombinant human CRTH2 receptor
For each record, write down the corresponding Ratio IC50.

Here are 3 molecules together with their reported answers.
molSmiles: O=C(O)Cn1c2c(c3cc(F)ccc31)CN(C(=O)CCc1cccc3ccccc13)CC2
parameter: Ratio IC50
observed: > 1000
//
molSmiles: O=C(O)Cn1c2c(c3ccccc31)CN(C(=O)c1ccccc1)CC2
parameter: Ratio IC50
observed: > 580
//
molSmiles: O=C(O)Cn1c2c(c3cc(F)ccc31)CN(C(=O)Cc1cccc3ccccc13)CC2
parameter: Ratio IC50
observed: > 2500

Kindly consider the entry below.
Prompt line: Given the molecule `O=C(O)Cn1c2c(c3ccccc31)CN(C(=O)c1cccc(Cl)c1)CC2` , what is its reported Ratio IC50?
Response line: > 1000

###

- testedOn: Prostaglandin E2 receptor EP2 subtype (Homo sapiens)
- Sequence (P43116 whole entry): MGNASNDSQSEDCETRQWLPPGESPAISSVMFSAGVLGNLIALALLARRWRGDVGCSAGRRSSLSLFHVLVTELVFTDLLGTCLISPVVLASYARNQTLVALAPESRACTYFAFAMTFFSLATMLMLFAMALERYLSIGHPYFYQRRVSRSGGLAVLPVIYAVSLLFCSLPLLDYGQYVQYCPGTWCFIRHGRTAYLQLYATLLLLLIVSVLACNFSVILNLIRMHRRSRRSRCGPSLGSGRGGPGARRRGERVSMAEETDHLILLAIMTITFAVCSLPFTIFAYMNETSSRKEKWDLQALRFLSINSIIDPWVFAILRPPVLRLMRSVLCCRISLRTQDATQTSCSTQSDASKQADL
- testName: Inhibition of beta-arrestin binding to recombinant human prostanoid EP2 receptor expressed in HEK293 cell membranes by beta-lactamase complementation assay
For each record, write down the corresponding IC50.
One number for each entry, in µM.

molSmiles: O=C(O)Cn1c2c(c3cc(Cl)ccc31)CN(C(=O)c1cccc3ccccc13)CC2
unitAbbrev: µM
IC50: 7.4

Prompt line: Given the compound `O=C(O)Cn1c2c(c3ccccc31)CN(C(=O)c1cccc3ccccc13)CC2` , what is its reported IC50?
Response line: 6.6

###

- testedOn: Prostaglandin D2 receptor 2 (Homo sapiens)
- testName: Displacement of [3H]PGD2 from recombinant human CRTH2 receptor expressed in HEK293 cell membranes after 90 mins by scintillation counting analysis
For each record, write down the corresponding pIC50.
Give bare numbers, as −log10 of the molar value.

Here are 2 molecules together with their reported answers.
molSmiles: COc1ccc2c(c1)c1c(n2CC(=O)O)CCN(C(=O)c2ccccc2)C1
parameter: pIC50
observed: 7.21

molSmiles: O=C(O)Cn1c2c(c3cc(F)ccc31)CN(C(=O)c1cccc(Cl)c1)CC2
parameter: pIC50
observed: 8.05

State recorded pIC50 for all listed molecules.
1. Cc1cccc2c3c(n(CC(=O)O)c12)CCN(C(=O)c1ccccc1)C3
2. O=C(O)Cn1c2c(c3cc(C(F)(F)F)ccc31)CN(C(=O)c1ccccc1)CC2
3. O=C(O)Cn1c2c(c3ccccc31)CN(C(=O)c1cccc3ccccc13)CC2
4. O=C(O)Cn1c2c(c3ccccc31)CN(C(=O)C1CCCCC1)CC2
5. Cc1ccc2c(c1)c1c(n2CC(=O)O)CCN(C(=O)c2ccccc2)C1

Response line:
[6.97, 8.05, 8.05, 7.15, 7.96]

State recorded pIC50 for all listed molecules.
1. O=C(O)Cn1c2c(c3cc(F)ccc31)CN(C(=O)c1ccccc1)CC2
2. O=C(O)Cn1c2c(c3cc(F)ccc31)CN(C(=O)c1cccc3ccccc13)CC2

Response line:
1. 8.15
2. 8.22
